molecular target: furin, P09958; assay: furin cleavage Z-score vs untreated control; higher = more cleavage, active = 3.5 or more, inactive = 1 or less, 8 variable residues between constant flanks; details: 7.5 min;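 further: purified furin at 1:10 enzyme:substrate in 50 mM HEPES pH 7.5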
Sequence (P09958 whole entry): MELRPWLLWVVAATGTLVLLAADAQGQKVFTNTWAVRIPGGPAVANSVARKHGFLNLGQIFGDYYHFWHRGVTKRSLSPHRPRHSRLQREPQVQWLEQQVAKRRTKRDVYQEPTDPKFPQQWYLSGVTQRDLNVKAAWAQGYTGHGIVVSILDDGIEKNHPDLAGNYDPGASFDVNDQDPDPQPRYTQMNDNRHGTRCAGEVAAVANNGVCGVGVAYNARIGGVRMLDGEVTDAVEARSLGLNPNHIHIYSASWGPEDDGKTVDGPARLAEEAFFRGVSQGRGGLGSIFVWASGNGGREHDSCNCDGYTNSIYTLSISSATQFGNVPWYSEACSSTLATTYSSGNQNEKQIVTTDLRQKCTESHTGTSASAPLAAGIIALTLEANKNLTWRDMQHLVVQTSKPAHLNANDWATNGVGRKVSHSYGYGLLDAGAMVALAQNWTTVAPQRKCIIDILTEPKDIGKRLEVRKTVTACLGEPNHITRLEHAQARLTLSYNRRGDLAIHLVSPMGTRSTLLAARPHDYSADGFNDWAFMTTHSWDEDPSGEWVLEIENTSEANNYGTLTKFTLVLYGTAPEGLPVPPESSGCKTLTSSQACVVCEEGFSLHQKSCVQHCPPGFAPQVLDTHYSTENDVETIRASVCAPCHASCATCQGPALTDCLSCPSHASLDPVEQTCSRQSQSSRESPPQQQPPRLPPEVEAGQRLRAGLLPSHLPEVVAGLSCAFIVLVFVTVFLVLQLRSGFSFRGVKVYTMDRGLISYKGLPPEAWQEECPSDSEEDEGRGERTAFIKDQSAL
The other results are listed elsewhere or left out. The hit rate among all sequences tested is not known here.
Can you answer with just one of these options? TRUE = active, FALSE = inactive

The following sequences have reported results that may help.
{"POLYMER_SEQUENCE": "CAKKKRMAMAAGNASASA [FS-2867]", "GROUP": "FALSE"}
{"POLYMER_SEQUENCE": "CAPVPPPRKKAGNASASA [HC1322]", "GROUP": "FALSE"}
{"POLYMER_SEQUENCE": "CAKKNKRNTNAGNASASA [HC165]", "GROUP": "TRUE"}

Task: I would be grateful if you could indicate the recorded call for CAKTTRKKRNAGNASASA [FS-263] .
Output: TRUE
